Hey, just so you know, these numbers are from paper PMC6236407.

Reported Ki values, 5-HT2A receptors (Rattus norvegicus).
measure: Ki (nM)

O=c1c2ccccc2c(=O)n(-c2ccccc2)n1CCCCN1CCN(c2ccccc2)CC1 : 309
O=c1ccc(=O)n(-c2ccccc2)n1CCCCN1CCN(c2ccccc2)CC1 : 409

* * *

# experimental-system: 5-HT1A receptors (Rattus norvegicus, UniProt P19327)
# Sequence (P19327 1-422): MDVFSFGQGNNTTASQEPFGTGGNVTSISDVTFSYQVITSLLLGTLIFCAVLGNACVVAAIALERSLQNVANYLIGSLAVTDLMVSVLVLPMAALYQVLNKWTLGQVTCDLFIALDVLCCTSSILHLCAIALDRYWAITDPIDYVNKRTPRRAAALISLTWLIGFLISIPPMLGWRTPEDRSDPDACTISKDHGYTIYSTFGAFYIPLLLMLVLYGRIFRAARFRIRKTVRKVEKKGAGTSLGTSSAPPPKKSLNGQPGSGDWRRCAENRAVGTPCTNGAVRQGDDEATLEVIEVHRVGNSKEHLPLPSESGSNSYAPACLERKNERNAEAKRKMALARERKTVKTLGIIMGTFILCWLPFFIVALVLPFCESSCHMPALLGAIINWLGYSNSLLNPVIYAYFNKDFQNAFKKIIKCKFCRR
pKi: −log10 of the molar value.
measure: pKi

(P) O=c1ccc(=O)n(-c2ccccc2)n1CCCCN1CCN(c2ccccc2)CC1
(Q) O=c1c2ccccc2c(=O)n(-c2ccccc2)n1CCCCN1CCN(c2ccccc2)CC1
Q: // pick min by pKi: P , Q In your reply, give the label of the chosen option.
Result: Q
